test system: Trypanosoma brucei; test: Trypanosoma brucei 72 hour study; type: functional, organism-based; set-up: scale not given: in the data most compounds retested in dose-response had high values; details: 30.3 µM; […]
The whole screen tested about 66,000 compounds, of which about 960 (1.5%) showed an effect of 50% or more. Only a selection was taken, and strong results are over-represented in it overall.
Catalogue of Percent Effect values
Return type: number; implicit unit %.

1. Cc1occc1C(=O)N1CCC2(CCN(C(=O)c3cccnc3)C2)CC1.O=C(O)C(F)(F)F = -37.63

Bench note: what Percent Effect did CC(C)(C)CN1CC(O)CN(C(=O)c2cccc(C(F)(F)F)c2)CC1=O (stereo not drawn) show?
-4.351

I would be grateful if you could share the reported Percent Effect for `CN(C)c1ccc(CNC2=NCCCN2)cc1.I` .
99.22

Field request: Percent Effect | item: CC(C)(C)n1ncc2c1CCCC2NCc1cccc2c1OCCO2 (stereo not drawn)
51.24

// returns reported Percent Effect for input CN(C)CC(C)(O)CNC(=O)Nc1sc2ccccc2c1Cl (stereo not drawn)
103.3

Give its Percent Effect value. Item: `CC(C)CCN(C)Cc1nc2c(cnn2C)c(=O)[nH]1`
0.4486

What measured Percent Effect goes with `O=C(CC1CC1)N1CCC2(CC1)CN(c1cccnc1)C(=O)CO2.O=C(O)C(F)(F)F` ?
-59.01

Param item = `CC(C)CN(Cc1nc2c(cnn2C)c(=O)[nH]1)CC(C)C` ; retrieve measured Percent Effect.
3.745

Reported Percent Effect, molecule `O=C(O)C(F)(F)F.c1csc(CN2CCn3c(Cn4cncn4)cnc3C2)c1` : ____
-144.4

Please report the recorded Percent Effect for COCC1c2c(cnn2CC2CC2)CCN1Cc1ccc(C)o1.O=C(O)C(F)(F)F.O=C(O)C(F)(F)F (stereo not drawn) .
-1.349

Return reported Percent Effect; argument: Cc1ccc(C(=O)NCc2ccnc(C3CCCOC3)n2)s1 (stereo not drawn)
49.43

----------
test system: Trypanosoma brucei; experiment: Trypanosoma brucei 72 hour study; assay type: functional, organism-based; parameters: scale not given: in the data most compounds retested in dose-response had high values; settings: 10 µM
The campaign covered roughly 66,000 compounds. About 960 (1.5%) showed an effect of 50% or more. Many of the other results were omitted from the sample, so strong results are more common in it than they were.
Sorting guide: entries reporting Percent Effect beneath -30% go in the y pile, the rest go in the n pile.

1. CCc1nc(C2CCCN2C(=O)c2ccc3c(c2)nnn3C)no1 (stereo not given) = n

Quick check: Percent Effect of COc1c(C2CCCN2C(=O)c2ccc(C#N)c(C)n2)c(C)nn1C (stereo not given) under -30%?
n

Does `COCc1ccccc1CNCc1c(C(C)C)nn(C)c1N(C)C` have Percent Effect strictly under -30%?
n

Please state whether Percent Effect is below -30% for `c1ccc(CCN2CCN(c3ccc4nncn4n3)CC2)cc1`
n

Dear colleague, could you confirm whether Percent Effect of N#Cc1ccc(OCC(O)CN2CCC(c3ccn[nH]3)CC2)cc1 (stereo not given) falls below -30%? Thanks.
n

# strict comparison: is reported Percent Effect < -30%? input = `CCNc1cc2c(nn1)CCN(C(=O)c1cc3cccc(C)c3o1)C2`
y

Bench note: check whether `Clc1ccccc1CCN1CCN(c2ccc3nncn3n2)CC1` shows Percent Effect below -30%
n

Answer whether the molecule `c1ccc(CCCN2CCN(c3ccc4nncn4n3)CC2)cc1` has Percent Effect strictly less than -30%
n

Is it true that Percent Effect reported for CCOc1ccc(C(=O)N2CCCC(n3nc(C)nc3C)C2)cc1 (stereo not given) is less than -30%?
y

For this molecule, is Percent Effect lower than -30%? CCc1ocnc1C(=O)N1CCOC(c2nc(C)n[nH]2)C1 (stereo not given)
n

Answer whether the molecule Cc1noc(C)c1C(=O)NCC(C)N1CCc2ccccc21 (stereo not given) has Percent Effect strictly less than -30%
y

In plain terms, does `Cl.O=C(Nc1cccc(CNCc2cccs2)c1)C1CC1` come in under -30% for Percent Effect?
n

Determine if `Cc1ccsc1C(=O)N1CCCN(Cc2cscn2)CC1` shows Percent Effect strictly lower than -30%.
n

----------
system: Trypanosoma brucei; test: Trypanosoma brucei 72 hour study; type: functional, organism-based; design: scale not given: in the data most compounds retested in dose-response had high values; details: 30.3 µM; […]
The whole screen tested about 66,000 compounds, of which about 960 (1.5%) showed an effect of 50% or more. What follows is part of a selection rich in strong results, with near analogues and random picks from the rest.
Below, each of the compounds is paired with its reported Percent Effect value.
Just the number in %, nothing appended.

The examples below pair each entry with its known result.
1) O=C(NCCc1nnc2n1CCCCC2)N1CCC2(CCCC2)CC1 = 99.8
2) COC1COC2(CCN(C(=O)c3ccccc3F)CC2)C1 (stereo not drawn) = -57.28
3) COC(=O)c1ccc2c(-c3ccnc(NCCO)n3)c[nH]c2c1 = 8.363
4) Cc1ccc(S(=O)(=O)Nc2ccc(=O)n(C)c2)c(Br)c1 = -36.73
5) O=C(NC[C@H]1CCCC[C@H]1O)c1ccc2nc(-c3ccco3)[nH]c2c1 = 17.46

Lookup: Percent Effect / Trypanosoma brucei / Cc1nnc(CN2CCCC2c2ccc(C(C)(C)C)cc2)o1 (stereo not drawn)
86.15

Request body: readout Percent Effect, system Trypanosoma brucei, query CN1CC(=O)N(c2cccnc2)CC12CCN(C(=O)c1cccn1C)C2.O=C(O)C(F)(F)F.O=C(O)C(F)(F)F (stereo not drawn) . Return the value.
-4.553

# query: Percent Effect | item `CC[C@@H](CO)Nc1nccc(-c2c[nH]c3cc(C(=O)OC)ccc23)n1` | system: Trypanosoma brucei
72.65

Form: Entry = `O=C(NCc1nnc2n1CCC2)N1CCC2(CCCCC2)CC1` | System = Trypanosoma brucei | Percent Effect = ____
-3.097

Query Percent Effect on Trypanosoma brucei for `O=C(NC[C@H]1CCCC[C@H]1O)c1cccc2[nH]c(-c3cccs3)nc12`
101.4

Recall the recorded Percent Effect for `COCCN1CCN(Cc2c(C3CCNCC3)[nH]c3ncccc23)CC1.Cl` with Trypanosoma brucei and state it.
1.283

Form field - read-out: Percent Effect; system: Trypanosoma brucei; submitted item: `CN1CCN(Cc2ccncc2)C(=O)C12CCN(Cc1ccsc1)CC2.O=C(O)C(F)(F)F.O=C(O)C(F)(F)F.O=C(O)C(F)(F)F`
-53.7

Missing value: Percent Effect, Trypanosoma brucei, entry CC(=O)N1CCN(Cc2ccco2)CC2(CC(=O)N(C)C2)C1.O=C(O)C(F)(F)F (stereo not drawn) . Fill in?
-65.74

----------
system: Trypanosoma brucei; test: Trypanosoma brucei 72 hour study; type: functional, organism-based; parameters: scale not given: in the data most compounds retested in dose-response had high values; conditions: 30.3 µM; […]
Among all 66,000 compounds or so, about 960 (1.5%) showed an effect of 50% or more. What follows is part of a selection rich in strong results, with near analogues and random picks from the rest.
property-measured: Percent Effect (%)
Kindly provide the numeric value in % only, without the unit symbol.

1) Cc1cc(-c2cnc(NC3CCCC3)nc2-c2ccco2)on1 = 60.69
2) O=C(O)C(F)(F)F.c1cnc(NC2COC3(CCN(Cc4nccs4)CC3)C2)cn1 (stereo not drawn) = -510.2
3) Cc1nn(C)c(C)c1-c1cc(-c2cnn(C)c2C2CC2)c(C#N)c(N)n1 = 20.75
4) Cc1cc(-c2cnc(NC3CCCC3)nc2-c2ccoc2)on1 = 19.37
5) Cn1ncc(-c2cc(-c3cccc(O)c3)nc(N)c2C#N)c1C1CC1 = 47.44
6) O=C(NCCc1coc(-c2ccccc2)n1)NC1CC1 = 100
7) CC(C)CC(=O)NCCn1nc(C2CCNC2)c2cccnc21.Cl (stereo not drawn) = 2.604

Now take the following compound into account.
Which Percent Effect is reported for this compound? `CC(C)n1c2ccccc2c2c1cc(C(=O)N(C)C)n2C`
-58.05

----------
tested on: Trypanosoma brucei; experiment: Trypanosoma brucei 72 hour study; assay type: functional, organism-based; design: scale not given: in the data most compounds retested in dose-response had high values; conditions: 30 µM; 30.03 µM
Among all 66,000 compounds or so, about 960 (1.5%) showed an effect of 50% or more. For the sample, strong results were picked, then their nearest neighbours and some compounds at random.
property-measured: Percent Effect (%)
Give your result in % as a bare value.

1. Cc1nn(C)c2ncnc(N3CCC(O)(CN4CCCC4)CC3)c12 = 57.4
2. Cc1cccc(CN2CCn3cc(Cn4cccn4)nc3C2)n1.O=C(O)C(F)(F)F.O=C(O)C(F)(F)F.O=C(O)C(F)(F)F = -12.32
3. CC(C)CS(=O)(=O)N1C[C@H]2C[C@H](C(=O)Nc3cccnc3)[C@@H](C1)O2 = -5.396
4. CC(C)c1nn(C)c(Cl)c1CNC1CCOc2ccccc21.Cl (stereo not given) = 55.88
5. COc1cc(CNC(=O)CNc2cc(Cl)ccc2OC)ccn1 = -27.18

Any idea what its Percent Effect is? The molecule is COc1c(CNC2CCOc3ccccc32)c(C(C)C)nn1C (stereo not given)
25.19

Item under review: CCN1CCC2(CC1)CC(NCc1cccc(C)n1)c1ccccc1O2.O=C(O)C(F)(F)F.O=C(O)C(F)(F)F.O=C(O)C(F)(F)F (stereo not given) . Reported Percent Effect?
-8.099

Which Percent Effect value is on record for Cc1nccn1C1CCCN(C(=O)c2ccc(N(C)C)nc2)C1 (stereo not given) ?
59.27

What does the record list as Percent Effect for `O=C(NCC1CC1)[C@H]1C[C@@H]2CN(C(=O)NCc3ccccc3)C[C@H]1O2` ?
46.62

State the recorded Percent Effect for this entry: Cc1nc(C)n(C2CCCN(C(=O)c3ccc(NC4CC4)nc3)C2)n1 (stereo not given)
56.19
